// data source = the supplement of paper PMC5908809

test system: KHYG-1 (IL-2 2.5 ng/mL); test: drug sensitivity score (DSS) (DSS units); higher = more sensitive; extreme values may be limits of the assay; settings: 72 h
For each entry below, report its drug sensitivity score value.
Answers are plain numbers.

So what does the record say about drug sensitivity score for C[C@H](Nc1ncnc2nc[nH]c12)c1cc2cccc(Cl)c2c(=O)n1-c1ccccc1 [Duvelisib] (max concentration tested 500 nM) ?
0.45

So what does the record say about drug sensitivity score for C[C@]12O[C@H](C[C@]1(O)CO)n1c3ccccc3c3c4c(c5c6ccccc6n2c5c31)CNC4=O [Lestaurtinib] (max concentration tested 1000 nM) ?
21.5

---
So what does the record say about drug sensitivity score for CC(C)(C)c1nc(-c2cccc(NS(=O)(=O)c3c(F)cccc3F)c2F)c(-c2ccnc(N)n2)s1 [Dabrafenib] (max concentration tested 2500 nM) ?
13.4
